method_notes: Cell Proliferation Assay against the TMD8 Cell Line (AID 651645);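 further: cells exposed to compound for 48 h before reading; 100% = DMSO and 0% = 9.2 µM bortezomib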
condition_label: TMD8 DLBCL cell line proliferation/viability; at 46.1 µM (top of the series) unless noted
Returns: string. Value is TRUE if measured viability (% of control) is below 80%, and FALSE if it is greater than or equal to it.

• CC(C)(C)OC(=O)CN(Cc1ccc(Cl)cc1)Cc1ccc([N+](=O)[O-])s1 = TRUE
• Nc1nc2[nH]cc(CCc3ccc(C(=O)N[C@@H](CCC(=O)O)C(=O)O)cc3)c2c(=O)[nH]1 = TRUE
• COc1ccc2c3n(c(=NC(=O)c4cccnc4)nc2c1OC)CCN3 = TRUE
• CN([C@@H](Cc1ccc(OS(=O)(=O)c2cccc3cnccc23)cc1)C(=O)N1CCN(c2ccccc2)CC1)S(=O)(=O)c1cccc2cnccc12 = TRUE
• NC(=O)c1ccc(-c2nc(-c3ccc4c(c3)OCCO4)c(-c3ccccn3)[nH]2)cc1 = FALSE
• C[C@@H]1C[C@H]2[C@@H]3CCC4=CC(=O)C=C[C@]4(C)C3(F)[C@@H](O)C[C@]2(C)[C@@]1(O)C(=O)CO (some centres undefined) = TRUE

----------
method_notes: Quantitative High-Throughput drug screen in 47 multiple myeloma cell lines against the NCATS MIPE library collection: ARD_JJKsccE7 cell viability assay (AID 1918929;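 on viability: 100% = DMSO-only wells and 0% = media-only wells without cells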)
condition_label: ARD myeloma cell line viability, CellTiter-Glo, 48 h; series mostly up to 45.8 µM
Inconclusive results are not listed. Activity calls are given as the source filed them. The call rests on the fitted dose curve; in most records, active means well fitted cell-killing curve with a large enough effect; inconclusive means small, poorly fitted or top-dose-only effect, or effect the other way; inactive means no such curve, though single readings can be large or run the other way.
Possible outcomes: true = active, false = inactive

• CC1(C)CNc2cc(NC(=O)c3cccnc3NCc3ccncc3)ccc21 = false
• CCC(=O)N[C@H]1CC[C@H](C(=O)N(C)c2ccc(-c3nc4ccccc4o3)cc2)C1 = true
• Fc1ccc(Cl)cc1-c1nc(Nc2ccncc2)c2nccnc2n1 = false
• Cc1ccccc1C(OCCN(C)C)c1ccccc1 (stereo unspecified) = false
• Cc1[nH]c(=O)c(C#N)cc1-c1ccc2nccn2c1 = false
• CC(C)(C)OC(=O)CN(Cc1ccc(Cl)cc1)Cc1ccc([N+](=O)[O-])s1 = false

----------
method_notes: qHTS drug screen for cell cycle checkpoint inhibitors in PARPi-resistant BRCA-mutant ovarian cancer cell lines. (AID 1963452)
condition_label: PEO1/OlaR viability, CellTiter-Glo luminescence, 96 h; measured here: PEO1 parental Z-AUC; stronger effect = lower value
Some compounds, each annotated with its measured Z-AUC.
reported_metric: Z-AUC

- c1ccc([C@H]2CN3CCSC3=N2)cc1: -0.401
- O=C(C1CC1)N1CC[C@@H](Cn2c(-c3ccc(-c4ccc5occc5c4)cc3)nc3cnccc32)C1: 0.824
- O=C(Nc1cccnc1)N1CCC(Cc2cccc(Oc3ccc(C(F)(F)F)cn3)c2)CC1: -1.46
- OC[C@H](Cc1ccccc1)Nc1nc(Oc2ccc3c(c2)CCC3)nc2c1ncn2Cc1ccc(-c2ccccc2)cc1: 0.249
- NS(=O)(=O)c1cc2c(cc1Cl)NC=NS2(=O)=O: 1.02
- COc1ccc2c3n(c(=NC(=O)c4cccnc4)nc2c1OC)CCN3: -0.328
- CCN(CC)CCCC(C)Nc1nc(C)cc(Nc2ccc3nc(C)cc(N)c3c2)n1 (stereo not given): 0.692
- COc1c(Cl)cc2c([nH]c3cnccc32)c1NC(=O)c1cccnc1C: 0.859
- O=C1CCCC2=C1C(c1[nH]ncc1Cl)N=C(Nc1nc3ccccc3o1)N2 (stereo not given): 0.851
- C#Cc1cccc(Nc2ncnc3cc(OCCOC)c(OCCOC)cc23)c1: -1.02

Data provenance: PubChem BioAssay (NCATS)
